# assay.explanation: Calculated conditional stability constants for chelants with Ca^+2 at specified pH
# Assay type: physicochemical
# experimental.conditions: pH 5
observation.type: log Conditional Stability Constant (@ pH) Ca^+2
Could you keep your reply to the number by itself?

• O=C(O)CC(NCC(O)CNC(CC(=O)O)C(=O)O)C(=O)O (centres unmarked) [HPDDS] = −4.50
• O=C(O)CN(CCN(CC(=O)O)CC(=O)O)CC(=O)O [EDTA] = 4.35
• O=C(O)CC[C@@H](C(=O)O)N(CC(=O)O)CC(=O)O [GLD, glutamic acid diacetic acid] = 0.13
• O=P(O)(O)CN(CCN(CP(=O)(O)O)CP(=O)(O)O)CCN(CP(=O)(O)O)CP(=O)(O)O [DTPMP] = −9.50
• O=C(O)CN(CCN(CC(=O)O)CC(=O)O)CCN(CC(=O)O)CC(=O)O [DTPA] = 1.64
• O=C(O)CN(CCO)CCN(CC(=O)O)CC(=O)O [HEDTA] = 1.68

## Input Identify the reported log Conditional Stability Constant (@ pH) Ca^+2 for the following entry. CC(C(=O)O)N(CC(=O)O)CC(=O)O (centres unmarked) [MGDA, methylglycinediacetic acid]
## Output 1.21

## Input Identify the reported log Conditional Stability Constant (@ pH) Ca^+2 for the following entry. O=C(O)CC(NCCNC(CC(=O)O)C(=O)O)C(=O)O (mixture of isomers) [EDDS, ethylene diamine disuccinic acid]
## Output −2.29

###

# assay.explanation: Calculated conditional stability constants for chelants with Ca^+2 at specified pH
# Assay type: physicochemical
# experimental.conditions: pH 6
observation.type: log Conditional Stability Constant (@ pH) Ca^+2
Could you keep your reply to the number by itself?

In the examples that follow, each entry is paired with its recorded log Conditional Stability Constant (@ pH) Ca^+2.
* O=C(O)CN(CCO)CCN(CC(=O)O)CC(=O)O [HEDTA] | 3.21
* O=C(O)CC(NCCNC(CC(=O)O)C(=O)O)C(=O)O (mixture of isomers) [EDDS, ethylene diamine disuccinic acid] | −0.13
* O=P(O)(O)CN(CCN(CP(=O)(O)O)CP(=O)(O)O)CCN(CP(=O)(O)O)CP(=O)(O)O [DTPMP] | −5.53

## Input Identify the reported log Conditional Stability Constant (@ pH) Ca^+2 for the following entry. O=C(O)CC[C@@H](C(=O)O)N(CC(=O)O)CC(=O)O [GLD, glutamic acid diacetic acid]
## Output 1.25

## Input Identify the reported log Conditional Stability Constant (@ pH) Ca^+2 for the following entry. CC(C(=O)O)N(CC(=O)O)CC(=O)O (centres unmarked) [MGDA, methylglycinediacetic acid]
## Output 2.21

## Input Identify the reported log Conditional Stability Constant (@ pH) Ca^+2 for the following entry. O=C(O)CN(CCN(CC(=O)O)CC(=O)O)CC(=O)O [EDTA]
## Output 6.14

## Input Identify the reported log Conditional Stability Constant (@ pH) Ca^+2 for the following entry. O=C(O)CC(NCC(O)CNC(CC(=O)O)C(=O)O)C(=O)O (centres unmarked) [HPDDS]
## Output −2.45

## Input Identify the reported log Conditional Stability Constant (@ pH) Ca^+2 for the following entry. O=C(O)CN(CCN(CC(=O)O)CC(=O)O)CCN(CC(=O)O)CC(=O)O [DTPA]
## Output 3.71

###

// log Conditional Stability Constant (@ pH) Ca^+2 lookup, one value per entry
# assay.explanation: Calculated conditional stability constants for chelants with Ca^+2 at specified pH
# Format: physicochemical
# experimental.conditions: pH 7
Could you keep your reply to the number by itself?

In the examples that follow, each entry is paired with its recorded log Conditional Stability Constant (@ pH) Ca^+2.
• O=C(O)CN(CCO)CCN(CC(=O)O)CC(=O)O [HEDTA] = 4.33
• CC(C(=O)O)N(CC(=O)O)CC(=O)O (centres unmarked) [MGDA, methylglycinediacetic acid] = 3.21
• O=C(O)CC(NCC(O)CNC(CC(=O)O)C(=O)O)C(=O)O (centres unmarked) [HPDDS] = 0.47
• O=P(O)(O)CN(CCN(CP(=O)(O)O)CP(=O)(O)O)CCN(CP(=O)(O)O)CP(=O)(O)O [DTPMP] = −1.72
• O=C(O)CC(NCCNC(CC(=O)O)C(=O)O)C(=O)O (mixture of isomers) [EDDS, ethylene diamine disuccinic acid] = 1.36

## Input Identify the reported log Conditional Stability Constant (@ pH) Ca^+2 for the following entry. O=C(O)CN(CCN(CC(=O)O)CC(=O)O)CCN(CC(=O)O)CC(=O)O [DTPA]
## Output 5.71

## Input Identify the reported log Conditional Stability Constant (@ pH) Ca^+2 for the following entry. O=C(O)CN(CCN(CC(=O)O)CC(=O)O)CC(=O)O [EDTA]
## Output 7.45

## Input Identify the reported log Conditional Stability Constant (@ pH) Ca^+2 for the following entry. O=C(O)CC[C@@H](C(=O)O)N(CC(=O)O)CC(=O)O [GLD, glutamic acid diacetic acid]
## Output 2.27
